- subject.of.test: Luciferin 4-monooxygenase (Photinus pyralis) (UniProt P08659)
- Sequence (P08659 whole entry, looked up): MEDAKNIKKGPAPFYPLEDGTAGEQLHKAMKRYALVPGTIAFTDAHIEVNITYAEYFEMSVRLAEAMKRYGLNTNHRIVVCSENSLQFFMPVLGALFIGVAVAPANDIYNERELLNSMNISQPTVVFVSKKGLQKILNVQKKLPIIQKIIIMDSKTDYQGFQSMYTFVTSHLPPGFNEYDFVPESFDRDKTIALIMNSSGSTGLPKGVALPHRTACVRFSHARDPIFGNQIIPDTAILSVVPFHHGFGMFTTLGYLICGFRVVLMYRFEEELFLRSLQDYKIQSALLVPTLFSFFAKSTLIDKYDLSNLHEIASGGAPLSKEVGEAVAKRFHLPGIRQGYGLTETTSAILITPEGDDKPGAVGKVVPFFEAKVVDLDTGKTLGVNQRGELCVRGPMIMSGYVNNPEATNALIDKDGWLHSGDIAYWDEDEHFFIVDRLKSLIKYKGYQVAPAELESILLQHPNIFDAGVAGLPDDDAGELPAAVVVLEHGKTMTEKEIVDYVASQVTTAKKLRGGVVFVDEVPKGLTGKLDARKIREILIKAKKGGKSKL
- assay.name: qHTS profiling assay for firefly luciferase inhibitor/activator using purifed enzyme and Km concentrations of substrates (counterscreen for miR-21 project); note: nearly all actives have a fitted effect of over 55% in size
- setup.conditions: purified FLuc, luminescence inhibition; series mostly up to 57.5 µM
In all, about 360,000 compounds went through this assay and about 25,000 (6.9%) were called active. About 9% were inconclusive and are not listed. Calls come from the whole dose curve; as a rule, active = well fitted inhibition curve with a large enough effect; inconclusive = small, poorly fitted or top-dose-only effect; inactive = flat fitted curve, though single readings scatter. Many of the other results were omitted from the sample, so actives are more common in it than they were.
Hi! Could you answer with just one of these? 1 (yes) for active, 0 (no) for inactive

# count of solved cases: 4
• O=C(O)c1ccccc1NC(=O)c1ccccc1-c1ccccc1C(=O)O = 0 (no)
• COc1cc(OC)c(C2C=C(C(=O)O)Nc3ncnn32)cc1OC (stereo unspecified) = 0 (no)
• CC(=O)c1c(C)[nH]c(C(=O)OCC(=O)Nc2c(C)cccc2C)c1C = 0 (no)
• O=C(Nc1ccncc1)c1ccccc1[N+](=O)[O-] = 0 (no)

Ask: Recorded test call requested for CCc1ccc(NC(=O)c2cc(S(=O)(=O)NC3CCCCCC3)ccc2F)cc1
Result: 0 (no)

Ask: Each molecule tested received a call. Report the one for CC(C)(C)OC(=O)N1CCC(c2c(C(=O)NCCc3ccsc3)cnn2-c2ccc(F)cc2F)CC1 .
Result: 0 (no)

Ask: Answer briefly: the call reported for O=C(/C=C/c1ccc2c(c1)OCO2)NCc1cn2cc(Cl)ccc2n1 in this assay.
Result: 0 (no)

Ask: Fill in: this test's call for COc1cccc(-c2nnc3n(CCc4ccccc4)c(=O)c4ccccc4n23)c1O is ___
Result: 0 (no)

Ask: So what was the verdict on Clc1ccc2nc(CSc3ccccc3)cn2c1 in this test?
Result: 1 (yes)

Ask: So what was the verdict on O=C(Nc1ccncc1)c1ccc(Cl)c([N+](=O)[O-])c1 in this test?
Result: 0 (no)

Ask: Field: outcome | Entry: CCn1c(COc2c(C)cccc2C)nnc1SCc1nc2ccccc2c(=O)[nH]1
Result: 0 (no)

###

- subject.of.test: Luciferin 4-monooxygenase (Photinus pyralis) (UniProt P08659)
- assay.name: qHTS profiling assay for firefly luciferase inhibitor/activator using purifed enzyme and Km concentrations of substrates (counterscreen for miR-21 project); note: nearly all actives have a fitted effect of over 55% in size; note: potency is the fitted concentration of half-maximal effect
- setup.conditions: purified FLuc, luminescence inhibition; series mostly up to 57.5 µM
Hit rate of the full screen: of about 360,000 compounds, about 25,000 (6.9%) were called active. About 9% were inconclusive and are not listed. What follows is part of a selection rich in actives, with near analogues and random picks from the rest.
measured.metric: Potency

- Cc1[nH]n(C)c(=O)c1C(=O)c1c(-c2c(Cl)cccc2Cl)noc1C: inactive
- CCOc1ccc(C(=O)CCC(=O)Nc2ccncc2)cc1: inactive
- CCOC(=O)C1(CCOC)CCN(Cc2cc3ccccc3s2)CC1: inactive
- CCn1cc(C(=O)NCc2ccc(C)cc2)c(=O)c2cc(S(=O)(=O)N3CCc4ccccc4C3)ccc21: inactive
- COCCn1c(C)cc(C(=O)CSc2nc3ccccc3c(=O)n2C(C)COC)c1C (stereo unspecified): inactive

List Potency for every entry below, keeping the order given.
1. COc1ccc(Cn2ccc3nc(C)c(C(=O)Nc4ccc(C)c(F)c4)cc3c2=O)cc1
2. Cc1cccc(NC(=O)CSc2nc(-c3ccco3)cc(C(F)(F)F)n2)c1C
3. CC(=O)c1c(C)[nH]c(C(=O)COc2ccc3c(C)cc(=O)oc3c2)c1C
4. CCCCCc1ccc(-c2ccc(C(=O)O)cc2)nc1
5. Cc1cc(C)c(NC(=O)CCc2c(C)nc3c(c(C)nn3C(C)(C)C)c2C)c(C)c1

Result:
["inactive", "inactive", "inactive", "0.675 µM (active)", "inactive"]

Please state, for each entry, its recorded Potency.
1. COCCn1c(C)cc(C(=O)CSc2nnc(C3CC3)n2C2CC2)c1C
2. COc1cc(CN(CC2CCCO2)C(=O)c2ccccc2F)cc(OC)c1OC (stereo unspecified)
3. COc1ccc(C2(C)NC(=O)N(CC(=O)c3ccc4c(c3)OCO4)C2=O)cc1 (stereo unspecified)
4. O=C(NCCc1c[nH]c2ccccc12)C1CCN(Cc2ccc(Br)cc2)CC1
5. CO[C@H]1[C@@H]2C=CO[C@@H](O[C@H]3O[C@@H](CO)[C@H](O)[C@@H](O)[C@@H]3O)[C@@H]2[C@@]2(CO)O[C@@H]12
6. O=c1c2ccccc2c(-c2ccc(F)cc2)nn1-c1ccc(C(F)(F)F)cc1

Result:
19 µM (active)
inactive
inactive
inactive
inactive
inactive

Could I get Potency for every one of these entries?
1. O=C1c2ccccc2C(=O)N1Cc1cc(-c2ccccc2Cl)no1
2. CCOc1ccc(NCCC(=O)c2ccc3c(c2)OCO3)cc1
3. CN(CC(=O)Nc1cccc(C(F)(F)F)c1)S(=O)(=O)c1cccs1
4. Cn1c(-c2ccc(C(F)(F)F)cc2)cc2onc(-c3ccccc3)c2c1=O
5. Cc1ccc(NC(=O)CCC(=O)N2CCC(c3ccccc3)=N2)cc1S(=O)(=O)N1CCCCC1

Result:
1: inactive; 2: 21.3 µM (active); 3: inactive; 4: 0.536 µM (active); 5: inactive

###

- subject.of.test: Luciferin 4-monooxygenase (Photinus pyralis)
- assay.name: qHTS profiling assay for firefly luciferase inhibitor/activator using purifed enzyme and Km concentrations of substrates (counterscreen for miR-21 project); note: nearly all actives have a fitted effect of over 55% in size
- setup.conditions: purified FLuc, luminescence inhibition; series mostly up to 57.5 µM
About 25,000 (6.9%) of roughly 360,000 compounds were called active. Not shown: some 9% with an inconclusive outcome. Calls follow the shape of the dose curve; as a rule, active = well fitted inhibition curve with a large enough effect; inconclusive = small, poorly fitted or top-dose-only effect; inactive = flat fitted curve, though single readings scatter. What follows is part of a selection rich in actives, with near analogues and random picks from the rest.
Choose one outcome from this list and give only that: true (1) (active), false (0) (inactive)

• CCCCC(=O)Nc1cc(C)c2c(=O)oc3ccccc3c2n1 = false (0)
• CC(C)(C)c1ccc(C(=O)NCCC(=O)NCc2ccco2)cc1 = false (0)
• CC1CCC(NS(=O)(=O)c2ccc3c(c2)CC(=O)N3)CC1 (stereo unspecified) = false (0)
• CS(=O)(=O)n1nc(-c2ccco2)nc1N = false (0)
• Cn1c(=O)sc2cc(NS(=O)(=O)c3ccc(C(C)(C)C)cc3)ccc21 = false (0)
• Cc1ccc(C(=O)CSc2nc(-c3ccccc3)nc3c2CCCC3)c(C)c1 = false (0)
• CC(C)(C)NC(=O)NCc1ccco1 = false (0)
• Cc1ccc(NC(=S)NCc2ccccc2Cl)c(C)c1 = false (0)
• CCn1nnnc1SCC(=O)c1ccc(C)cc1C = true (1)
• O=C(CN1CCCCCC1)Nc1ccc(Cl)cc1F = false (0)

Ask: Could you check what this test reported for Cc1ccc(NC(=S)NCCc2ccc(Cl)cc2)c(C)c1 ?
Result: false (0)

Ask: What was the test verdict on O=C(CN1CCOCC1)Nc1c(Cl)cc(Cl)cc1Cl ?
Result: false (0)

Ask: Assay outcome for O=C(O)/C=C/c1cn(-c2ccccc2)nc1-c1cccs1 : what was it?
Result: true (1)

Ask: Returns: the outcome recorded for CCOC(=O)c1ccc(N2C(=O)c3n[nH]c(-c4ccco4)c3C2c2ccc(O)cc2)cc1 (stereo unspecified) in this assay.
Result: false (0)

Ask: Look up the recorded call for Cc1c(NC(=O)C(=O)N/N=C/c2cccs2)c(=O)n(-c2ccccc2)n1C in this test.
Result: false (0)

Ask: What did this assay record as the result for FC(F)(F)c1cccc(N/N=C/c2ccccc2)c1 ?
Result: true (1)

Ask: Check the results log: what was the call for CCc1ccccc1N1CC(c2nc3ccccc3n2CCCCOc2ccccc2)CC1=O (stereo unspecified) ?
Result: false (0)

Ask: Outcome logged for Cc1ccc(NC(=S)N2CCN(c3ncccn3)CC2)cc1C in this assay:
Result: false (0)

Ask: GET /call?item= Cn1c(SCC(=O)Nc2ccc(Br)cc2F)nnc1-c1ccco1 returns the recorded outcome of this test.
Result: false (0)

Ask: Outcome? COc1ccc(C(=O)CSc2nnnn2C)c(OC)c1
Result: false (0)

Ask: Call for entry CCc1ccccc1NC(=O)CN(C)C(=O)c1cc(C2CC2)nn1-c1ccccc1 :
Result: false (0)

###

- subject.of.test: Luciferin 4-monooxygenase (Photinus pyralis) (UniProt P08659)
- assay.name: qHTS profiling assay for firefly luciferase inhibitor/activator using purifed enzyme and Km concentrations of substrates (counterscreen for miR-21 project); note: nearly all actives have a fitted effect of over 55% in size;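 for activity change, negative = inhibition: plate controls were vehicle for no effect and reference inhibitor for full effect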
- setup.conditions: purified FLuc, luminescence inhibition; series mostly up to 57.5 µM
Hit rate of the full screen: of about 360,000 compounds, about 25,000 (6.9%) were called active. Roughly 9% stayed inconclusive and do not appear here. Many of the other results were omitted from the sample, so actives are more common in it than they were.
What activity change, negative = inhibition was measured for each of the following?

• O=c1cccc(-c2ccc(Br)cc2)o1 = 3.87% [at 2.3 µM] (inactive)

List reported activity change, negative = inhibition for each of these compounds:
1. O=C(Nc1ccccc1F)c1cc(S(=O)(=O)N2CCCCC2)cs1
2. Cc1occc1C(=O)Nc1nnc(-c2ccncc2)s1

Result:
1: 6.84% [at 2.3 µM] (inactive); 2: -0.684% [at 2.3 µM] (inactive)
